# target_or_system: Bifunctional dihydrofolate reductase-thymidylate synthase (Plasmodium falciparum K1, UniProt P13922, C59R/I164L/N51I/S108N)
# Sequence (P13922 whole entry, looked up, stated change not applied): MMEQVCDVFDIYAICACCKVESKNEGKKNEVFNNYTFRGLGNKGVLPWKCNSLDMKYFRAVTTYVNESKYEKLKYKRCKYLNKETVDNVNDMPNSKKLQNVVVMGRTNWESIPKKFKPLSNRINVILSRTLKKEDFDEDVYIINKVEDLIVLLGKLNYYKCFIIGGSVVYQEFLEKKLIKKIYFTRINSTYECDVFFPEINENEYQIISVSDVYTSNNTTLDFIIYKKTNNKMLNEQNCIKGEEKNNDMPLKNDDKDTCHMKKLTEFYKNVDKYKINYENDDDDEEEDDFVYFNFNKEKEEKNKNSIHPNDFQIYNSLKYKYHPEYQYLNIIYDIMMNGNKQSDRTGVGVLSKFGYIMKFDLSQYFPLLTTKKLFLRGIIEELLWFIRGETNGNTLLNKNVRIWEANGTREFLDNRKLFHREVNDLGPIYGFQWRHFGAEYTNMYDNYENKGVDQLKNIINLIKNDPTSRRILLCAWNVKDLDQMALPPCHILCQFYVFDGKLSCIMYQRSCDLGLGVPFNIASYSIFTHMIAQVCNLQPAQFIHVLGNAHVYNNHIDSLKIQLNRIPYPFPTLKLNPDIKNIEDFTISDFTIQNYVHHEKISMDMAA
# assay_comment: Binding affinity towards mutant dihydrofolate reductase (N51I+C59R+S108N+I164L DHFR) of Plasmodium falciparum
compounds and their reported pKi
# log scale: pKi equals minus log10 of the concentration in mol/L

Use the examples below as a reference point.
CCc1nc(N)nc(N)c1-c1ccc(Cl)c(Cl)c1 ... 7.28
CCc1nc(N)nc(N)c1-c1ccc(C)cc1 ... 6.55
NC1=NC(c2cccc(Oc3ccc(Cl)cc3)c2)N(c2ccc(Cl)cc2)C(N)=N1 (stereo not drawn) ... 6.92
CCCC1(C)N=C(N)N=C(N)N1c1ccc(Cl)cc1 (stereo not drawn) ... 5.35

INPUT: Find the recorded pKi belonging to `CC(=O)OCCCc1nc(N)nc(N)c1-c1ccccc1` and report it.
OUTPUT: 6.63

INPUT: Find the recorded pKi belonging to `CC1(C)N=C(N)N=C(N)N1c1ccc(Cl)cc1` and report it.
OUTPUT: 6.38

INPUT: Find the recorded pKi belonging to NC1=NC(c2cccc(Oc3ccccc3)c2)N(c2cccc(Cl)c2)C(N)=N1 (stereo not drawn) and report it.
OUTPUT: 8.24

INPUT: Find the recorded pKi belonging to CCCCCCCC1N=C(N)N=C(N)N1c1cccc(Cl)c1 (stereo not drawn) and report it.
OUTPUT: 9.10
